Biological target: Human autotaxin enzyme (Homo sapiens, UniProt Q13822)
Construct: purchased R&D System
Assay: Evaluation of autotaxin inhibitor, Method B (Test Example 2): TG-mTMP fluorescence
Assay type: biochemical
Conditions: Assay Method B (Test Example 2), human autotaxin; read-out: Inhibitory Activity (autotaxin enzyme inhibitory activity, IC50 class)
pIC50: −log10 of the molar value.
Metric name: pIC50

Field: example entries. Status: answers known.
>  <Compound>
N#CCCCCn1c(-c2ccc(C(=O)NCCN3CCOCC3)cc2)cc(=O)n2cc(-c3ccc(Cl)cc3)nc12 [Compound 380]

>  <pIC50>
> 8.00

$$$$
>  <Compound>
CCCCCn1c(C)cc(=O)n2cc(-c3ccc(OC(F)F)cc3)nc12 [Compound 155]

>  <pIC50>
7.00 to 8.00

$$$$
>  <Compound>
Cc1cc(=O)n2cc(-c3ccc(Cl)cc3)nc2n1CCCC#N [Compound 106]

>  <pIC50>
7.00 to 8.00

$$$$
>  <Compound>
CCCCCn1c(N(C)CCC)cc(=O)n2cc(-c3ccc(Cl)cc3)nc12 [Compound 230]

>  <pIC50>
> 8.00

$$$$

[Q] // map CCCCCn1c(C)cc(=O)n2c(Br)c(-c3ccc(Cl)cc3)nc12 [Compound 171] to recorded pIC50 (system: Human autotaxin enzyme (Homo sapiens, UniProt Q13822))
[A] 7.00 to 8.00

[Q] Repeat with CCCCCn1c(-c2ccc(OC)cc2)cc(=O)n2cc(-c3ccc(Cl)cc3)nc12 [Compound 397]
[A] > 8.00

[Q] Moving on to CCCCCn1c(C)c(F)c(=O)n2cc(-c3cccc(Cl)c3)nc12 [Compound 212]
[A] < 6.00

====

Items are presented alongside their recorded IC50.
Biological target: Human autotaxin enzyme (Homo sapiens)
Construct: purchased R&D System
Assay: Evaluation of autotaxin inhibitor, Method C (Test Example 3): 18:0 Lyso PC, choline assay, Resorufin fluorescence
Type: biochemical
Details: Assay Method C (Test Example 3), human autotaxin, 18:0 Lyso PC substrate; read-out: Inhibitory Activity (autotaxin enzyme inhibitory activity, IC50 class)

Consider the following illustrative entries.
>  <Line notation>
CC(C)(NC(=O)[C@@H]1C[C@@H](O)CN1c1cc(=O)n2cc(-c3ccc(Cl)cc3)nc2n1Cc1ccccc1)C(=O)O

>  <Subject of test>
Human autotaxin enzyme (Homo sapiens)

>  <Metric name>
IC50

>  <Experimental result>
< 10 nM

$$$$
>  <Line notation>
CCCCCn1c(-c2cccc(N3CCOCC3)c2)cc(=O)n2cc(-c3ccc(Cl)cc3)nc12

>  <Subject of test>
Human autotaxin enzyme (Homo sapiens)

>  <Metric name>
IC50

>  <Experimental result>
100 to 1000 nM

$$$$

Okay, now this compound:
[Q] Item "CCCCCn1c(-c2ccc(S(C)(=O)=O)cc2)cc(=O)n2cc(-c3ccc(Cl)cc3)nc12" has what recorded IC50?
[A] 10 to 100 nM

====

Below, each entry is listed with its recorded IC50.
Molecular target: Human autotaxin enzyme (Homo sapiens, UniProt Q13822)
Construct: purchased R&D System
Experiment: Evaluation of autotaxin inhibitor, Method C (Test Example 3): 18:0 Lyso PC, choline assay, Resorufin fluorescence
Type: biochemical
Conditions: Assay Method C (Test Example 3), human autotaxin, 18:0 Lyso PC substrate; read-out: Inhibitory Activity (autotaxin enzyme inhibitory activity, IC50 class)

>  <Compound>
CCCCCn1c(-c2ccnc(OC)c2)cc(=O)n2cc(-c3ccc(Cl)cc3)nc12

>  <Metric name>
IC50

>  <Experimental result>
100 to 1000 nM

$$$$
>  <Compound>
CCCCCn1c(N2CCC[C@@]2(C)C(=O)NCCC(=O)O)cc(=O)n2cc(-c3ccc(Cl)cc3)nc12

>  <Metric name>
IC50

>  <Experimental result>
100 to 1000 nM

$$$$
>  <Compound>
CCCCCn1c(-c2cnc(C(=O)NCCC(=O)O)nc2)cc(=O)n2cc(-c3ccc(Cl)cc3)nc12

>  <Metric name>
IC50

>  <Experimental result>
< 10 nM

$$$$
>  <Compound>
CCCCCn1c(OCC2COC2)cc(=O)n2cc(-c3ccc(Cl)cc3)nc12

>  <Metric name>
IC50

>  <Experimental result>
100 to 1000 nM

$$$$
>  <Compound>
CCCCCn1c(N2CC3CN(C(=O)OC(C)(C)C)CC3C2)cc(=O)n2cc(-c3ccc(Cl)cc3)nc12 (stereo not drawn)

>  <Metric name>
IC50

>  <Experimental result>
> 1000 nM

$$$$

[Q] What does the record list as IC50 for "CCCCCn1c(N2CCC[C@H]2C(=O)N[C@@H]2CCCNC2=O)cc(=O)n2cc(-c3ccc(Cl)cc3)nc12" ?
[A] 100 to 1000 nM

[Q] Same question, "CCCCCn1c(-c2cnc(C(=O)NCCN3CC4(COC4)C3)nc2)cc(=O)n2cc(-c3ccc(Cl)cc3)nc12" this time
[A] < 10 nM

[Q] "CCCCCn1c(N2CCC[C@H]2C(=O)NCCCCCCN(C)C)cc(=O)n2cc(-c3ccc(Cl)cc3)nc12" , same question.
[A] 10 to 100 nM

[Q] Check "Cn1c(N2C[C@H](O)C[C@H]2C(=O)N[C@@H](Cc2ccccc2)C(=O)O)cc(=O)n2cc(-c3ccc(Cl)cc3)nc12" too.
[A] 100 to 1000 nM

[Q] Same question, "CCCCCn1c(N2CCC[C@@]2(C)C(=O)O)cc(=O)n2cc(-c3ccc(Cl)cc3)nc12" this time
[A] > 1000 nM

[Q] Moving on to "CCCCCn1c(N2C[C@@H](O)C[C@H]2C(=O)N[C@H](C(=O)O)C(C)(C)C)cc(=O)n2cc(-c3ccc(Cl)cc3)nc12"
[A] < 10 nM

[Q] Next record, please: "CCCCCn1c(N2C[C@H](F)C[C@H]2C(=O)O)cc(=O)n2cc(-c3ccc(Cl)cc3)nc12"
[A] > 1000 nM

====

Entries and their IC50
Target: Human autotaxin enzyme (Homo sapiens)
Construct: purchased R&D System
Assay: Evaluation of autotaxin inhibitor, Method C (Test Example 3): 18:0 Lyso PC, choline assay, Resorufin fluorescence
Format: biochemical
Conditions: Assay Method C (Test Example 3), human autotaxin, 18:0 Lyso PC substrate; read-out: Inhibitory Activity (autotaxin enzyme inhibitory activity, IC50 class)

Here are 5 compounds together with their reported answers.
>  <Line notation>
CCCCCn1c(-c2ccc(C(=O)NC3(CO)CCC3)cc2)cc(=O)n2cc(-c3ccc(Cl)cc3)nc12

>  <Experimental result>
10 to 100 nM

$$$$
>  <Line notation>
CCCCCn1c(-c2ccc(C(=O)NC(C)(C)CO)cc2)cc(=O)n2cc(-c3ccc(Cl)cc3)nc12

>  <Experimental result>
10 to 100 nM

$$$$
>  <Line notation>
CCCCCn1c(N2CCC[C@H]2C(=O)Nc2ccccc2)cc(=O)n2cc(-c3ccc(Cl)cc3)nc12

>  <Experimental result>
100 to 1000 nM

$$$$
>  <Line notation>
CCCCCn1c(N2CCC[C@H]2C(=O)NCCCCCN(C)C)cc(=O)n2cc(-c3ccc(Cl)cc3)nc12

>  <Experimental result>
100 to 1000 nM

$$$$
>  <Line notation>
CCCCCn1c(N2CCC[C@@H](C(=O)NCC(=O)O)C2)cc(=O)n2cc(-c3ccc(Cl)cc3)nc12

>  <Experimental result>
10 to 100 nM

$$$$

[Q] Find IC50 (Human autotaxin enzyme (Homo sapiens)) for the entry "CCCCCn1c(-c2ccc(C(=O)Nc3ccncc3)cc2)cc(=O)n2cc(-c3ccc(Cl)cc3)nc12"
[A] 10 to 100 nM

[Q] Next compound up: "CCCCCn1c(N2CCC[C@H]2C(=O)N(C)CC(=O)OC)cc(=O)n2cc(-c3ccc(Cl)cc3)nc12"
[A] 10 to 100 nM

====

Target: Human autotaxin enzyme (Homo sapiens, UniProt Q13822)
Construct: purchased R&D System
Experiment: Evaluation of autotaxin inhibitor, Method C (Test Example 3): 18:0 Lyso PC, choline assay, Resorufin fluorescence
Format: biochemical
Conditions: Assay Method C (Test Example 3), human autotaxin, 18:0 Lyso PC substrate; read-out: Inhibitory Activity (autotaxin enzyme inhibitory activity, IC50 class)
pIC50: −log10 of the molar value.
Metric name: pIC50

>  <Compound>
CCCCCn1c(C)cc(=O)n2cc(C3CCC(C(F)(F)F)CC3)nc12 (stereo not drawn)

>  <pIC50>
6.00 to 7.00

$$$$
>  <Compound>
CCCCCn1c(NCCCCC(=O)O)cc(=O)n2cc(-c3ccc(Cl)cc3)nc12

>  <pIC50>
7.00 to 8.00

$$$$

[Q] Return reported pIC50; argument: "CCCCCn1c(N2CCC[C@H]2C(=O)N[C@H](C(=O)O)C(c2ccccc2)c2ccccc2)cc(=O)n2cc(-c3ccc(Cl)cc3)nc12"
[A] 6.00 to 7.00

[Q] Same lookup for "CCCCCn1c(N2CCC[C@H]2CC(=O)NCCC(=O)O)cc(=O)n2cc(-c3ccc(Cl)cc3)nc12" , please.
[A] > 8.00

The origin of these recorded values is patent US20160002247A1.
